Kindly supply the reported pIC50 values for the records listed here.
MEASURED TARGET: human DPP1 enzyme (Homo sapiens, UniProt P53634)
Sequence (P53634 25-134 limits assumed): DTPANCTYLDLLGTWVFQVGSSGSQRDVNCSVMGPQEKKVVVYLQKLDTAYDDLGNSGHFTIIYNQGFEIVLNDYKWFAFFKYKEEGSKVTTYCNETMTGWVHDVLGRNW
Sequence (P53634 231-394 limits assumed): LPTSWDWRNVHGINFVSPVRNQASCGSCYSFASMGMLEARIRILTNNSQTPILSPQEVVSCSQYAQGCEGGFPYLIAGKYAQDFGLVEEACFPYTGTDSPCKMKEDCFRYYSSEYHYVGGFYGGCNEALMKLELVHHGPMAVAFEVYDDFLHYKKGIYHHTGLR
Sequence (P53634 395-463 limits assumed): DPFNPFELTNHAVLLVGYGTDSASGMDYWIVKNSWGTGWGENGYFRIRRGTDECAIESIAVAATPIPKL
METHOD: Human DPP1 Enzyme IC50 Assay
Format: biochemical
Parameters: was first proteolytically processed into its mature form using recombinant human cathepsin L; purchased R&D Systems
CONDITION SET: activated recombinant human DPP1, 400 μM H-Gly-Arg-AMC, 10 minutes pre-incubation at 37° C., pH 6.0; average of n runs; read-out: Avg. IC50 (Human DPP1 enzyme IC50 value ranges)
Experimental: Example 97. Human DPP1 Enzyme IC50 Assay Recombinant human DPP1 enzyme (R&D Systems; Minneapolis, MN) was first proteolytically processed into its mature form using recombinant human cathepsin L (R&D Systems) in a buffer consisting of 20 mM citric acid pH 4.5, 150 mM NaCl, 1 mM EDTA and 10 mM DTT. […] Substrate cleavage was measured for 90 minutes at 37° C., with fluorescence at Excitation/Emission 350/450 nm measured every 5 minutes. […]
pIC50: −log10 of the molar value.

-- ask Fill in pIC50 for record `C[C@@H]1NC[C@@H](C(=O)N[C@H](C#N)Cc2ccc(-c3ccc4c(F)nn(C)c4c3)cc2)OC[C@@H]1O`
-- reply 7.82 to 8.30

-- ask Fill in pIC50 for record `Cc1cn2cc(-c3ccc(C[C@@H](C#N)NC(=O)[C@@H]4CNCCCCO4)cc3)cc2c(C)n1`
-- reply < 7.82

-- ask Fill in pIC50 for record `CN1CCC2(CCc3cc(-c4ccc(C[C@@H](C#N)NC(=O)[C@@H]5CNCCCO5)cc4)ccc32)CC1`
-- reply < 7.82

-- ask Fill in pIC50 for record `Cn1nc(F)c2ccc(-c3ncc(C[C@@H](C#N)NC(=O)[C@@H]4CNCC[C@@H](F)CO4)s3)cc21`
-- reply < 7.82

-- ask Fill in pIC50 for record `CO[C@@H]1CCNC[C@@H](C(=O)N[C@H](C#N)Cc2ccc(-c3cc4c(C)nc(C)cn4c3)cc2)OC1`
-- reply < 7.82

-- ask Fill in pIC50 for record N#C[C@H](Cc1ccc(-c2csc(-c3nnc(N)o3)c2)cc1)NC(=O)[C@@H]1CNCCCO1 [Compound D2]
-- reply < 7.82
